pIC50: −log10 of the molar value.
Study the reported pIC50 values for human DGAT2 (hDGAT2) (Homo sapiens, UniProt Q96PD7) given below; they originate from different publications.
Values of pIC50 greater than or equal to 7 map to Y; values below map to N.

# Molecule, Class
measured = [
    ("CC(C)c1nn(-c2cncc(OC(F)F)c2)c2ccc(C(=O)NC3(C)CS(=O)(=O)C3)cc12", "Y"),
    ("CC(C)n1nc(-c2cccc(OC(F)F)c2)c2ccc(C(=O)NC3(C)CS(=O)(=O)C3)c(F)c21", "Y"),
    ("Cc1cc2nc(C(=O)NC3(C)CC(F)(F)C3)cn2cc1Oc1ncc(F)cc1OCC(F)F", "Y"),
    ("CC(C)n1nc(-c2cccc(S(C)(=O)=O)c2)c2ncc(C(=O)NC3(C)CS(=O)(=O)C3)cc21", "N"),
    ("CC1(NC(=O)c2nc3cc(Cl)c(Oc4ncc(Cl)cc4OCC(F)F)nn3c2Cl)CS(=O)(=O)C1", "Y"),
    ("CC1(NC(=O)c2ccc3c(-c4cc(C#N)ccc4F)nn(-c4ccc(F)cc4)c3c2)CCS(=O)(=O)C1 (single isomer, unassigned)", "Y"),
    ("CC1(NC(=O)c2nn3ccc(Oc4ncccc4OCC(F)(F)F)cc3c2C(F)(F)F)CCS(=O)(=O)CC1", "N"),
    ("O=C(NC1CCS(=O)(=O)C1)c1ccc2c(-c3ccccc3Cl)nn(-c3ccc(F)cc3)c2c1 (single isomer, unassigned)", "Y"),
    ("CC1(NC(=O)c2ccc3c(-c4cccc(C#N)c4)nn(-c4ccc(F)cn4)c3c2)CCS(=O)(=O)C1 (single isomer, unassigned)", "Y"),
    ("CC1(NC(=O)c2ccc3c(-c4ccccc4Cl)nn(-c4ccc(F)cn4)c3c2)CCS(=O)(=O)C1 (single isomer, unassigned)", "Y"),
    ("COC(=O)c1cccc(-c2ccc(CNC(=O)C3CC3c3ccccc3)c3c2CCN(C(=O)c2ccncc2)C3)c1 (stereo not drawn)", "N"),
    ("Cc1cc(C)nc(-c2cn(-c3ccc(F)cc3)c3cc(C(=O)NC4CCS(=O)(=O)C4)ccc23)c1 (racemic)", "N"),
    ("COc1ccc(-c2nn(-c3ccc(F)cc3)c3cc(C(=O)NC4(C)CCS(=O)(=O)C4)ccc23)cn1 (single isomer, unassigned)", "N"),
    ("O=C(NC1(CO)CCS(=O)(=O)C1)c1ccc2c(-c3ccccc3Cl)nn(-c3ccc(F)cc3)c2c1 (racemic)", "N"),
    ("CC(C)(C)NC(=O)N1CCc2c(-c3cccc(C(F)(F)F)c3)ccc(C(=O)NCCn3cnnc3)c2C1", "N"),
    ("Cc1c(C(=O)NC2(C)CCS(=O)(=O)CC2)nn2ccc(Oc3ncccc3OCC(F)(F)F)cc12", "Y"),
    ("CC1(NC(=O)c2nc3ccc(Oc4ncccc4OCC(F)(F)F)cn3c2O)CCS(=O)(=O)CC1", "Y"),
    ("CC1(NC(=O)c2ccc3c(-c4ccnc(C(F)(F)F)c4)nn(-c4ccc(F)cc4)c3c2)CCS(=O)(=O)C1 (single isomer, unassigned)", "N"),
    ("O=C(Nc1ccc(C(F)(F)F)nc1)c1ccc2c(-c3ccccc3Cl)nn(-c3ccc(F)cc3)c2c1", "N"),
    ("COC(=O)c1cccc(-c2ccc(CNC(=O)C3CC3c3ccccc3)c3c2CCN(C(=O)c2ccc(F)cc2)C3)c1 (stereo not drawn)", "N"),
]

* * *

Study the reported pIC50 values for UniProtKB Q96PD7 given below; they originate from different publications.
pIC50: −log10 of the molar value.
Readout: pIC50

# Molecule, Readout, Recorded Measurement
records = [
    ("CO[C@@H]1C[C@H](NC(=O)c2ccc3c(-c4ccccc4Cl)nn(-c4ccc(F)cc4)c3c2)[C@H](O)[C@H](C)O1", "pIC50", 6.71),
    ("CC(C)(C)NC(=O)N1CCc2c(-c3ccc4c(c3)CNC4=O)ccc(CNC(=O)[C@@H]3C[C@H]3c3ccccc3)c2C1 (relative stereo)", "pIC50", 5.58),
    ("CC(NC(=O)c1ccc2c(-c3ccccc3Cl)nn(-c3ccc(F)cc3)c2c1)C(O)C(F)(F)F (stereo not shown)", "pIC50", 7.06),
    ("CC1(NC(=O)c2cc(F)c3c(c2)c(C(C)(C)O)nn3-c2cccc(OC(F)F)c2)CS(=O)(=O)C1", "pIC50", 7.82),
]

* * *

Study the reported pIC50 values for UniProt:Q96PD7 given below; they originate from different publications.
pIC50: −log10 of the molar value.

# Compound, pIC50
rows = [
    ("CC(C)n1nc(-c2cccc(C3(C#N)CC3)c2)c2ncc(C(=O)NC3(C)CS(=O)(=O)C3)cc21", 5.72),
    ("CC(C)Cn1cc(-c2ccc(CNC(=O)[C@@H]3C[C@H]3c3ccccc3)c3c2CCN(C(=O)NC(C)(C)C)C3)cn1 (relative stereo)", 7.02),
    ("O=C(NCCS(=O)(=O)Nc1cccnc1)c1ccc2c(-c3ccccc3Cl)nn(-c3ccc(F)cc3)c2c1", 7.80),
    ("CC1(NC(=O)c2nn3ccc(Oc4nccnc4OCC(F)F)cc3c2Cl)CS(=O)(=O)C1", 7.11),
    ("O=C(N[C@H]1CCCC(F)(F)[C@@H]1O)c1nc2ccc(Oc3ncc(Cl)cc3OCC(F)(F)F)cn2n1", 7.22),
    ("COc1cccc(-c2ccc(CNC(=O)[C@@H]3C[C@H]3c3nc(C)no3)c3c2CCN(C(=O)NC2(C)COC2)C3)c1 (relative stereo)", 7.87),
    ("Cc1c(C(=O)NC2(C)CCS(=O)(=O)CC2)nc2ccc(Oc3ncc(C(C)(C)O)cc3OCC(F)(F)F)cn12", 6.99),
]

* * *

Study the reported IC50 values for human DGAT2 (hDGAT2) (Homo sapiens, UniProt Q96PD7) given below; they originate from different publications.

# Molecule, IC50
data = [
    ("Cc1c(C(=O)NC2(C)CCS(=O)(=O)CC2)nc2ccc(Oc3ncc(O)cc3OCC(F)(F)F)cn12", "0.08 µM"),
    ("CCOc1cccnc1Oc1cncc(-c2ncc(C(=O)NC3CCC(C(F)(F)F)NC3)cn2)c1 (single isomer, unassigned; ent-1)", "0.039 µM"),
    ("Cc1c(C(=O)NCC2(C)CS(=O)(=O)C2)nc2ccc(Oc3ncc(F)cc3OCC(F)(F)F)cn12", "0.957 µM"),
    ("CCOCC(=O)N1CCc2c(-c3cccc(C(=O)OC)c3)ccc(CNC(=O)C3CC3c3ccccc3)c2C1 (centres unmarked)", "2.17 µM"),
    ("Cc1c(Oc2ncc(Cl)cc2OCC(F)(F)F)ccc2nc(C(=O)NC3(C)CCS(=O)(=O)CC3)c(Cl)n12", "0.0026 µM"),
    ("CCOc1cccnc1COc1ccc2nc(C(=O)NC3(C)CCS(=O)(=O)CC3)c(C)n2c1", "0.0049 µM"),
    ("O=C(NC1CCS(=O)(=O)C1)c1ccc2c(-c3ccccc3Cl)cn(-c3ccc(F)cc3)c2c1 (racemic)", "0.066 µM"),
    ("CC(=O)Nc1cccc(-c2cn(-c3ccc(F)cc3)c3cc(C(=O)NC4CCS(=O)(=O)C4)ccc23)c1 (racemic)", "0.163 µM"),
    ("COc1cccc(-c2ccc(CNC(=O)c3nccc4ccccc34)c3c2CCN(C(=O)NC(C)(C)C)C3)c1", "0.135 µM"),
    ("CCc1nn(-c2cccc(OC(F)F)c2)c2ccc(C(=O)NC3(C)CS(=O)(=O)C3)cc12", "0.011 µM"),
    ("COC(=O)c1cccc(-c2ccc(CNC(=O)C3CC3c3ccccc3)c3c2CCN(C(=O)c2cccnc2)C3)c1 (centres unmarked)", "3.56 µM"),
    ("O=C(NC1CCS(=O)(=O)C1)c1ccc2c(-c3ccccc3Cl)nn(-c3ccccn3)c2c1 (single isomer, unassigned)", "0.338 µM"),
    ("CC(C)(C)NC(=O)N1CCc2c(-c3cccc(OC(F)(F)F)c3)ccc(CNC(=O)[C@H]3C[C@@H]3c3ccccc3)c2C1 (relative stereo)", "0.031 µM"),
    ("CC(C)(C)NC(=O)N1CCc2c(-c3cccc(OC(F)(F)F)c3)ccc(C(=O)NCCn3ccnn3)c2C1", "2.58 µM"),
]

* * *

pIC50: −log10 of the molar value.
Study the reported pIC50 values for human DGAT2 (hDGAT2) (Homo sapiens, UniProt Q96PD7) given below; they originate from different publications.
Readout: pIC50

# Compound, Relation Sign, Recorded Measurement
measured = [
    ("CC1(NC(=O)c2ccc3c(-c4ccccc4Cl)nn(-c4ccc(Cl)cn4)c3c2)CCS(=O)(=O)C1 (single isomer, unassigned)", "=", 7.82),
    ("Cc1noc(C2CC2C(=O)NCc2ccc(-c3cccc(OC(F)(F)F)c3)c3c2CN(CC(=O)NC2CC2)CC3)n1 (stereo not shown)", "=", 6.14),
    ("O=C(NC1CCC(F)(F)C1)c1ccc2c(-c3ccccc3Cl)nn(-c3ccc(F)cc3)c2c1 (racemic)", "=", 6.88),
    ("Cc1c(C(=O)NC2(C)CS(=O)(=O)C2)nc2ccc(Oc3ncc(C(F)(F)F)nc3OCC(F)(F)F)cn12", "=", 7.15),
    ("Cc1c(Oc2ncc(Cl)cc2OCC(C)(F)F)cc(F)c2nc(C(=O)NC3(C)CCS(=O)(=O)CC3)nn12", "=", 7.52),
    ("CCOc1cccnc1Oc1ccc2nc(C(=O)NC3CC(C)(C)OC(C)(C)C3)cn2c1", "=", 7.25),
    ("CC(C)(C)NC(=O)N1CCc2c(-c3cccc(C(F)(F)F)c3)ccc(C(=O)NCCc3cn4ccsc4n3)c2C1", "=", 6.88),
    ("O=C(NCCS(=O)(=O)NCc1ccccc1)c1ccc2c(-c3ccccc3Cl)nn(-c3ccc(F)cc3)c2c1", "=", 6.92),
    ("CC1(NC(=O)c2cn3nc(Oc4ncc(Cl)cc4OCC(F)(F)F)ccc3n2)CS(=O)(=O)C1", "=", 6.32),
    ("CC1(NC(=O)c2ccc3c(-c4cccc(C5CC5)c4)nn(-c4ccc(F)cc4)c3c2)CCS(=O)(=O)C1 (single isomer, unassigned)", "=", 8.68),
    ("O=C(NC1CCS(=O)(=O)C1)c1ccc2c(-c3cccc(O)c3)cn(-c3ccc(F)cc3)c2c1 (racemic)", "=", 6.31),
    ("Cc1cc(C(=O)NC2(C)CS(=O)(=O)C2)cc2c(C(C)(C)O)nn(-c3cccc(OC(F)F)c3)c12", "=", 7.23),
    ("CC1(NC(=O)c2cc3nc(Oc4ncc(Cl)cc4OCC(F)F)ccn3n2)CCS(=O)(=O)CC1", "=", 7.07),
    ("CC(C)(C)OC(=O)N1CCS(=O)(=O)CC(NC(=O)c2ccc3c(-c4ccccc4Cl)nn(-c4ccc(F)cc4)c3c2)C1 (racemic)", "=", 6.24),
    ("CC(C)n1nc(-c2cncc(OC(F)F)c2)c2ncc(C(=O)N[C@H]3CCCC[C@@H]3O)cc21", "=", 7.28),
    ("CC1(NC(=O)c2cnc3c(-c4cccc(OC(F)F)c4)nn(Cc4ccc(F)cc4)c3c2)CS(=O)(=O)C1", "=", 7.40),
    ("COc1c(C(=O)NC2(C)CCS(=O)(=O)CC2)nc2ccc(Oc3ncccc3OCC(F)(F)F)cn12", "=", 8.21),
    ("CC1(NC(=O)c2ccc3c(-c4cccc(C#N)c4)nn(-c4ccc(F)cc4)c3c2)CCS(=O)(=O)C1 (single isomer, unassigned)", "=", 8.19),
    ("COC(=O)c1cccc(-c2ccc(CNC(=O)C3CC3c3nc(C)no3)c3c2CCN(C(=O)NC(C)(C)C)C3)c1 (stereo not shown)", "=", 7.81),
    ("CC(C)n1nc(-c2cc(OC(F)F)ccc2F)c2ncc(C(=O)NC(C)(C)CN(C)C)cc21", "=", 6.67),
    ("O=C(NC(CCN1CCOCC1)c1ccccc1)c1ccc2c(-c3ccccc3Cl)nn(-c3ccc(F)cc3)c2c1 (racemic)", "=", 6.27),
    ("CC[C@H](C)[C@@H](CO)NC(=O)c1ccc2c(-c3ccccc3Cl)nn(-c3ccc(F)cc3)c2c1", "=", 7.51),
    ("CC1(NC(=O)c2cn3cc(Oc4ncccc4O)ccc3n2)CCS(=O)(=O)CC1", "<", 5.00),
    ("O=C(NC1CCS(=O)(=O)C1)c1ccc2c(-c3ccc(-n4cccn4)cc3)cn(-c3ccc(F)cc3)c2c1 (racemic)", "=", 6.93),
    ("CCC1(NC(=O)c2nc3ccc(Oc4ncc(F)cc4OCC(F)F)cn3c2C)CCS(=O)(=O)CC1", "=", 9.10),
    ("COc1ccc2nc(CCNC(=O)c3ccc(-c4cccc(C(F)(F)F)c4)c4c3CN(C(=O)NCC(F)(F)F)CC4)[nH]c2c1", "=", 7.08),
    ("N#Cc1cccc(-c2nn(-c3ccc(F)cc3)c3cc(C(=O)NC4CCS(=O)(=O)C4)ccc23)c1 (single isomer, unassigned)", "=", 8.00),
    ("CC(C)Oc1nn(-c2cc(OC(F)F)ccc2F)c2ncc(C(=O)NC3(C)CS(=O)(=O)C3)cc12", "=", 7.03),
]
